TESTED ON: UniProtKB P31389
Sequence (P31389 whole entry): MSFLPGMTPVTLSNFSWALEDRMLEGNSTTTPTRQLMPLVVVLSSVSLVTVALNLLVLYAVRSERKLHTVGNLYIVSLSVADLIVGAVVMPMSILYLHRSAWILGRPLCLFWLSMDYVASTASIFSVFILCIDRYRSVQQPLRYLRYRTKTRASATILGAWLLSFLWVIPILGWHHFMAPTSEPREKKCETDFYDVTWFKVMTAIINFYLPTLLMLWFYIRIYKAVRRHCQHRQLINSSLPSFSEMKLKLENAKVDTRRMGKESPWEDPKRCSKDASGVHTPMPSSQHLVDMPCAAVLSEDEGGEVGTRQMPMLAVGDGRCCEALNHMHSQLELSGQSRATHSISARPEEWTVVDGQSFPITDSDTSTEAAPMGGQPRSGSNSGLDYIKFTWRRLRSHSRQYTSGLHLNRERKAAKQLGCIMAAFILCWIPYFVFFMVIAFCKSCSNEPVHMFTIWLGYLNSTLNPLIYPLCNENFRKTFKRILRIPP
METHOD DESCRIPTION: Antagonistic activity (H1 antagonism) evaluated by the inhibition of histamine-stimulated contraction in guinea pig ileum at a concentration of 1E-7 - 1E-4 M
Format: functional, tissue-based
For each of the compounds below, state its pKB.

Consider the worked cases shown below.
>  <COMPOUND>
N=C(NCCCc1c[nH]cn1)NCCC(c1ccc(F)cc1)c1ccccn1 (centres undefined)

>  <pKB>
7.65

$$$$
>  <COMPOUND>
Cc1ccc(CC(CC/N=C(\N)NCCCc2c[nH]cn2)c2ccccn2)cc1 (centres undefined)

>  <pKB>
6.4

$$$$
>  <COMPOUND>
Fc1ccc(C(CCCNCCCc2c[nH]cn2)c2ccccn2)cc1 (centres undefined)

>  <pKB>
6.43

$$$$

Let us examine a further case.
Incoming: For the compound N=C(CCCCc1c[nH]cn1)NCCC(c1ccc(F)cc1)c1ccccn1 (centres undefined) , what pKB is on record?
Outgoing: 6.56

---

TESTED ON: Neuropeptide Y receptor type 1 (Homo sapiens) (UniProt P25929)
Sequence (P25929 whole entry): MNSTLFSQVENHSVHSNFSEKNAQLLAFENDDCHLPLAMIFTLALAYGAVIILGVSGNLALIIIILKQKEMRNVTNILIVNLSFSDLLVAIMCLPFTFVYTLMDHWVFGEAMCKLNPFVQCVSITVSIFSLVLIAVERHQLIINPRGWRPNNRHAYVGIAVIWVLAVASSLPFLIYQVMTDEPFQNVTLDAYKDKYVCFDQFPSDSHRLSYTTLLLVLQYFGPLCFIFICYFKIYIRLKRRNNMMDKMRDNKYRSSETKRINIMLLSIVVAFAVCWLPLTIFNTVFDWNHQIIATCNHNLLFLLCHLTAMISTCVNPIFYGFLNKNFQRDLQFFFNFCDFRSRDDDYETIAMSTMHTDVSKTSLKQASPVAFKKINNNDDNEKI
METHOD DESCRIPTION: Tested for inhibition of NPY-induced increase in [Ca2+] at 10 uM concentration in human erythroleukemia cells
Type: functional
PROPERTY: inhibition (%)
One number for each entry, in %.

Reference set (2 entries):
>  <COMPOUND>
N=C(NCCCc1c[nH]cn1)NCCC(c1ccccc1)c1ccccn1 (stereo not drawn)

>  <VALUE UNIT>
%

>  <inhibition>
2

$$$$
>  <COMPOUND>
Brc1ccc(C(CC/N=C(/NCCCc2c[nH]cn2)Nc2ccccc2)c2ccccn2)cc1 (stereo not drawn)

>  <VALUE UNIT>
%

>  <inhibition>
24

$$$$

Incoming: Name the reported inhibition value associated with the compound Cc1ccc(CC(CC/N=C(/NCCCc2c[nH]cn2)NC2CCCCC2)c2ccccn2)cc1 (stereo not drawn)
Outgoing: 24
